We begin with a simple list: items and their reported t1/2.
- Tested System: T1, scHLA-B27-mmH (engineered HLA-B*27 ectodomain in-line fusion protein) (human (HLA-B*2705, beta-2 …))
- T1 construct: also called soluble HLA-B*27 fusion protein
- Assay Info: SPR (Biacore), mAb captured, 25 C, HBST pH 7.4
Result Type: t1/2 (min)

[[record]]
binder = "H4H2534S (antibody, V domains shown) VH: EVQLVESGPGLVKPAQTLSLTCTVSGGSINSGGNYWSWIRQHPGKGLEWIGYIYYSGNTYYNPSLKSRVTISVDMSKNQFSLKLRSVTAADTAVYFCARDPRGITGTHHFDCWGQGTLVTVSS VL: EIVLTQSPGTLSLSPGERATLSCRTSQSVSSRYLAWYQQKPGQAPRLLIYDASSRATGIPDRFSGSGSGTDFTLTISRLEPEDFAVYYCQQFGPSLFTFGPGTKVDIK"
result_type = "t1/2"
assay_value = 6

[[record]]
binder = "H4H2538P (antibody, V domains shown) VH: QVQLVQSGAEVKKPGASVKVSCKASGYTFTDYYMHWVRQAPGQGLEWIGWINPNSGGSNFAQKFQGRVTMTRDTSISTAYMELSRLRSDDTAVYYCARKAGYTSSWFDYWGQGTLVTVSS VL: DIVMTQSPDSLAVSLGERATINCKSSQSVLYSFNNKNYLSWYQQKPGQPPKLLIYWASTRESGVPDRFSGSGSGTDFTLTISSLQAEDAAVYYCQQYYSMITFGQGTRLEIK"
result_type = "t1/2"
assay_value = 20

[[record]]
binder = "H4H2560P (antibody, V domains shown) VH: QVQLVQSGAEVKKPGASVKVSCKASGYTFTGYFIHWVRQAPGQGLEWVGWINPTSGGTNYAQKFQGRVTMTRDTSISTAYMEMNSLRSDDTAVYYCARKAGYTSTWFDYWGQGTTVTVSS VL: DIVMTQSPDSLTVSLGERATINCKSSQSVLYSSKNKNYLAWYQQKPGQPPNLLVYWASTRESGVPDRFSGSGSGTDFTLTISSLQAEDVAVYYCQQYYSMITFGQGTRLEIK"
result_type = "t1/2"
assay_value = 6

